Source: PubChem BioAssay

- Experiment: modulators of HCV replicon luciferase signal, primary screen, HCV replication inhibitor project, Huh7 cells, luciferase reporter (AID 1109);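 also: huh7 hepatoma cells harbouring a luciferase neomycin HCV replicon reporter; luciferase luminescence as measure of HCV replicon replication; test concentration not given here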
- Measurement Parameters: 48 h, higher = more signal
Measured z-score values are reported for all entries that follow.
Measurement Name: z-score

- COCCOC(=O)N1C(=O)[C@@]2(c3cc(C#CC4=CCCCC4)ccc31)[C@H](c1ccc(OCCO)cc1)N1[C@H](c3ccccc3)[C@H](c3ccccc3)OC(=O)[C@H]1[C@@H]2C(=O)NC[C@H](O)c1ccccc1: -1.88
- COCCOC(=O)N1C(=O)[C@@]2(c3cc(C#CCCO)ccc31)[C@H](c1ccccc1OCCO)N1[C@H](c3ccccc3)[C@H](c3ccccc3)OC(=O)[C@H]1[C@@H]2C(=O)Nc1nc2ccccc2s1: -1.65
- CC(c1ccccc1)C(O)C1C=CC2C(=O)N(c3ccccc3)C(=O)C2N1Nc1ccc([N+](=O)[O-])cc1 (stereo not drawn): -0.0504
- [N-]=[N+]=Nc1ccccc1[C@@H]1OC(c2ccc(OCCCO)cc2)=N[C@]1(Cc1ccccc1)C(=O)NCC(O)CO (stereo partly drawn): -1.34
- COCCOC(=O)N1C(=O)[C@@]2(c3cc(C#CC4=CCCCC4)ccc31)[C@H](c1ccc(OCCO)cc1)N1[C@H](c3ccccc3)[C@H](c3ccccc3)OC(=O)[C@H]1[C@@H]2C(=O)N1CCN(c2ncccn2)CC1: -0.807
- COc1ccc([Si](C)(C)[C@@H]2[C@@H](CC(=O)N3Cc4ccccc4C[C@H]3CO)O[C@]3(C(=O)N(C)c4ccccc43)[C@H]2C)cc1: -4.84
- COc1ccc([Si](C)(C)[C@H]2[C@H](CCn3cc([C@H](O)c4ccccc4)nn3)O[C@@]3(C(=O)N(Cc4ccc(N5C(=O)c6cccc7cccc5c67)cc4)c4ccccc43)[C@@H]2C)cc1: -2.6
- CC(C)[Si](C#C[Si](C(C)C)(C(C)C)C(C)C)(O[C@H](C)c1cn([C@H](CO)Cc2ccccc2)nn1)C(C)C: -0.677
- O=C1NC(=O)C2C1C=CC(C(O)c1cccc3ccccc13)N2Nc1ccc(Cl)cc1Cl (stereo not drawn): -0.445
- CN(C)CCCNC(=O)[C@@]1(c2ccc([N+](=O)[O-])cc2)CC(=O)N(CC23CC4CC(CC(C4)C2)C3)[C@@H]1c1ccc(CO)cc1I: -3.54
- COc1ccc(C(O)C2C=CC3C(=O)N(c4ccccc4)C(=O)C3N2Nc2ccc([N+](=O)[O-])cc2)cc1 (stereo not drawn): -0.925
- COC(=O)[C@@]1(Cc2ccc(F)cc2)[C@H]2c3cc(C(=O)N(C)C)n(Cc4cc(F)cc5c4OCOC5)c3C[C@H]2CN1C(=O)c1ccccc1: -1.81
- C[N+](C)(C)CCCC[C@@H]1NC(=O)[C@H]2C[C@@H](C(=O)NCCCCCCN)[C@@H](c3ccc(O)cc3)N2C1=O: -0.481
